test: P-glycoprotein substrates identified in KB-8-5-11 adenocarcinoma cell line, qHTS therapeutic library screen (AID 1346987); conditions: KB-8-5-11 (P-gp overexpressing) viability, CellTiter-Glo, 72 h; series mostly up to 44.5 µM; further: nearly all actives have a fitted effect of over 65% in size; on activity change, negative = cytotoxicity: on the % scale 0 is the no-effect control and ±100 the full control effect
Results filed as inconclusive are left out. Activity calls are given as the source filed them. The call rests on the fitted dose curve; in most records, active means well fitted inhibition curve with a large enough effect; inconclusive means small, poorly fitted or top-dose-only effect; inactive means flat fitted curve, though single readings scatter.

- molecule: "CC(=O)OC1C(CO)OC(O[C@H]2[C@H](OC(=O)[C@]34CCC(C)(C)C[C@H]3C3=CCC5[C@@]6(C)CC[C@H](O[C@@H]7O[C@H](C(=O)O)[C@@H](O)[C@H](O[C@@H]8OC[C@@H](O)[C@H](O)[C@H]8O)[C@H]7O[C@@H]7O[C@H](CO)[C@H](O)[C@H](O)[C@H]7O)[C@@](C)(C=O)C6CC[C@@]5(C)[C@]3(C)C[C@H]4O)O[C@H](C)[C@H](OC3OC(C)C(OC4OCC(O)C(O)C4O)C(O)C3O)[C@@H]2O)C(O)C1O (some centres undefined)"
  activity change, negative = cytotoxicity: "1.85% [at 9.29 µM] (inactive)"
- molecule: "C=C1CC[C@@H]2[C@@](C)(CO[C@@H]3O[C@H](CO)[C@@H](O)[C@H](O)[C@H]3O)[C@H](O)CC[C@@]2(C)[C@@H]1CC/C(C)=C/CO[C@@H]1O[C@H](CO)[C@@H](O)[C@H](O)[C@H]1O"
  activity change, negative = cytotoxicity: "inactive"
- molecule: "C=C[C@@](C)(CCC=C(C)C)O[C@@H]1O[C@H](CO[C@@H]2OC[C@H](O)[C@H](O)[C@H]2O)[C@@H](O)[C@H](O)[C@H]1O"
  activity change, negative = cytotoxicity: "inactive"
- molecule: "COc1cc(O[C@@H]2O[C@H](CO[C@H]3OC[C@](O)(CO)[C@H]3O)[C@@H](O)[C@H](O)[C@H]2O)cc(OC)c1O"
  activity change, negative = cytotoxicity: "inactive"

* * *

test: Primary qHTS for inhibitors of nuclear receptor binding SET domain protein 2 (NSD2) in an isogenic RCH-ACV NSD2 p.E1099K mutant (9B) (AID 1645876); conditions: RCH-ACV (leukaemia line) NSD2 E1099K (9B) viability, CellTiter-Glo, 72 h; series mostly up to 44.9 µM; further: nearly all actives have a fitted effect of over 70% in size; on activity change, negative = viability loss: on the % scale 0 is the no-effect control and ±100 the full control effect
Inconclusive results are not listed. Calls of active or inactive are those of the source. Calls follow the shape of the dose curve; as a rule, active = well fitted inhibition curve with a large enough effect; inconclusive = small, poorly fitted or top-dose-only effect; inactive = flat fitted curve, though single readings scatter.
outcome_measure: activity change, negative = viability loss

- compound: "C=C(C)[C@@]1(O)C[C@@]2(C)C(=CC1=O)CC[C@@H](O)[C@@H]2C"
  reported_result: "inactive"
- compound: "C[C@@]12CC3(S(=O)(=O)O)OC(O1)[C@]1(COC(=O)c4ccccc4)[C@H]3C[C@]21O[C@@H]1O[C@H](CO)[C@@H](O)[C@H](O)[C@H]1O"
  reported_result: "inactive"
- compound: "CC(C)(OC1OC(CO)C(O)C(O)C1O)C1CCC(O)(CO)C2CC(=O)C(C)(O)C2C1 (stereo unspecified)"
  reported_result: "inactive"
- compound: "C=C1C2(C)CC3C4(C)OC(C5OC56C4=CC(=O)OC6(C)C)C3(C)C13C(=O)OC(C)C3(O)C2=O (stereo unspecified)"
  reported_result: "inactive"
- compound: "CC1(C)CC[C@]2(C(=O)O[C@@H]3O[C@H](CO)[C@@H](O)[C@H](O)[C@H]3O)CC[C@]3(C)C(=CCC4[C@@]5(C)C[C@H](O)[C@H](O[C@@H]6O[C@H](C(=O)O)[C@@H](O)[C@H](O)[C@H]6O)[C@@](C)(CO)C5CC[C@]43C)C2C1 (stereo partly specified)"
  reported_result: "-12.9% [at 9.23 µM] (inactive)"
- compound: "C[C@@H]1O[C@@H](O[C@H]2[C@@H]3C=CO[C@@H](O[C@@H]4O[C@H](CO)[C@@H](O)[C@H](O)[C@H]4O)[C@@H]3[C@@]3(CO)O[C@@H]23)[C@H](O)[C@H](OC(=O)/C=C/c2ccc(O)cc2)[C@H]1OC(=O)/C=C/c1ccc(O)cc1"
  reported_result: "inactive"

* * *

system: Tov-21-G; assay: Primary qHTS to identify gynecologic anti-cancer compounds using libraries of approved drugs and bioactive compounds (AID 1345084); conditions: Gynecologic cancer cell panel viability, ATPlite luminescence, 48 h; series mostly up to 57.5 µM; further: on the % scale 0 is the no-effect control and ±100 the full control effect; nearly all actives have a fitted effect of over 55% in size
Inconclusive results are not listed. Activity calls are given as the source filed them. Calls follow the shape of the dose curve; as a rule, active = well fitted cell-killing curve with a large enough effect; inconclusive = small, poorly fitted or top-dose-only effect, or effect the other way; inactive = flat fitted curve, though single readings scatter.

- structure_string: "CC(C)(O)/C=C/C(=O)[C@](C)(O)[C@H]1[C@H](O)C[C@@]2(C)[C@@H]3CC=C4[C@@H](C=C(O[C@@H]5O[C@H](CO)[C@@H](O)[C@H](O)[C@H]5O)C(=O)C4(C)C)[C@]3(C)C(=O)C[C@]12C"
  activity change, negative = cytotoxicity: "inactive"
- structure_string: "O=C(/C=C/c1ccc(O)cc1)OC[C@H]1O[C@@H](O/C(=C\\c2ccccc2)C(=O)O)[C@H](O)[C@@H](O)[C@@H]1O"
  activity change, negative = cytotoxicity: "inactive"
- structure_string: "Cc1cc(-n2c(=O)[nH]c(=O)n(C)c2=O)ccc1Oc1ccc(SC(F)(F)F)cc1"
  activity change, negative = cytotoxicity: "inactive"

* * *

test system: HACAT; experiment: qHTS assay to identify novel small-molecules to repurpose for Merkel cell carcinoma treatment (AID 1296009); conditions: MCC and control cell lines, CellTiter-Glo viability, 72 h; at 44.8 µM (top of the series) unless noted; further: nearly all actives have a fitted effect of over 60% in size
Results filed as inconclusive are left out. Activity calls are given as the source filed them. Calls follow the shape of the dose curve; as a rule, active = well fitted inhibition curve with a large enough effect; inconclusive = small, poorly fitted or top-dose-only effect; inactive = flat fitted curve, though single readings scatter.
outcome_measure: outcome

- molecule: "O=C(O)c1cc(O[C@@H]2O[C@H](CO)[C@@H](O)[C@H](O)[C@H]2O)ccc1O"
  reported_result: "inactive"
- molecule: "COc1ccc(NC(=O)c2ccc(-c3ccc(C(N)=O)cc3C)cc2)cc1N1CCN(C)CC1"
  reported_result: "inactive"
- molecule: "COC(=O)C1=COC(OC2OC(CO)C(O)C(O)C2O)C2C(C)C(OC(=O)/C=C/c3ccc(O)cc3)C(O)C12 (centres undefined)"
  reported_result: "inactive [at 17.4 µM]"
- molecule: "Cn1cc(-c2c[nH]c3ncnc(N4CCOCC4)c23)cn1"
  reported_result: "inactive"
- molecule: "CC(=O)OC12CC(C)C(OC(=O)c3ccccc3)C1/C=C(/C)C(OC(=O)c1ccccc1)CC(=O)C(C)(C)/C=C/C(C)C2=O (centres undefined)"
  reported_result: "inactive [at 17.4 µM]"
- molecule: "OC[C@H]1O[C@@H](OCc2ccccc2)[C@H](O[C@@H]2OC[C@@H](O)[C@H](O)[C@H]2O)[C@@H](O)[C@@H]1O"
  reported_result: "inactive [at 17.4 µM]"
- molecule: "CC1=C(CO)C2(C)CCCC(C)(C)C2C(O)C1O (centres undefined)"
  reported_result: "inactive"
- molecule: "CC(=O)NC1CC(=O)C23C(=O)NC(Cc4c[nH]c5ccccc45)C2C(C)=C(C)C(O)C3/C=C/CC(C)/C=C(/C)C(O)C1O (centres undefined)"
  reported_result: "inactive [at 17.4 µM]"
- molecule: "CC(C)=CCC[C@](C)(O[C@@H]1O[C@H](CO[C@@H]2O[C@@H](CO)[C@H](O)[C@H]2O[C@@H]2OC[C@@H](O)[C@H](O)[C@H]2O)[C@@H](O)[C@H](O)[C@H]1O)[C@H]1CC[C@]2(C)[C@@H]1[C@H](O)CC1[C@@]3(C)CC[C@H](O[C@@H]4O[C@H](CO)[C@@H](O)[C@H](O)[C@H]4O[C@@H]4O[C@H](CO)[C@@H](O)[C@H](O)[C@H]4O)C(C)(C)C3CC[C@]12C (some centres undefined)"
  reported_result: "inactive [at 9.27 µM]"
- molecule: "Oc1ccccc1-c1cc(-c2ccccc2F)[nH]n1"
  reported_result: "inactive"
- molecule: "C[C@H]1[C@H](C)CC[C@]2(C(=O)OC3OC(CO)C(O)C(O)C3O)CC[C@]3(C(=O)O)C(=CCC4[C@@]5(C)CC[C@H](O[C@@H]6O[C@@H](C)[C@H](OC7OC(CO)C(O)C(O)C7O)[C@@H](O)[C@H]6O)C(C)(C)C5CC[C@]43C)[C@H]12 (some centres undefined)"
  reported_result: "inactive [at 9.27 µM]"
- molecule: "C/C=C/C=C/C1=C2C(=O)C3(C)C4C(C(=O)CC(O)/C=C/C)=C(O1)C1(C)C2C2(C)OC1(O)C4(C)OC23O (centres undefined)"
  reported_result: "inactive [at 17.4 µM]"
- molecule: "C[C@H]1[C@H](C)CC[C@]2(C(=O)O)CC[C@]3(C(=O)O)C(=CCC4[C@@]5(C)CC[C@H](O[C@@H]6O[C@@H](C)[C@H](O)[C@@H](O)[C@H]6O)C(C)(C)C5CC[C@]43C)[C@H]12 (some centres undefined)"
  reported_result: "inactive [at 17.4 µM]"
- molecule: "C=C1[C@H](OC(C)=O)[C@H]2[C@@H](OC(C)=O)C(C)C[C@]2(OC(C)=O)C(=O)[C@H](C)/C=C/C(C)(C)C(=O)[C@H](OC(=O)C(C)C)[C@H]1OC(C)=O (some centres undefined)"
  reported_result: "inactive [at 17.4 µM]"
